// reported IC50 per item
STUDY TARGET: Large T antigen (Simian virus 40, UniProt P03070);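 note: Confirmatory-stage PubChem screen for compounds that inhibit SV40 T antigen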
Sequence (P03070 whole entry): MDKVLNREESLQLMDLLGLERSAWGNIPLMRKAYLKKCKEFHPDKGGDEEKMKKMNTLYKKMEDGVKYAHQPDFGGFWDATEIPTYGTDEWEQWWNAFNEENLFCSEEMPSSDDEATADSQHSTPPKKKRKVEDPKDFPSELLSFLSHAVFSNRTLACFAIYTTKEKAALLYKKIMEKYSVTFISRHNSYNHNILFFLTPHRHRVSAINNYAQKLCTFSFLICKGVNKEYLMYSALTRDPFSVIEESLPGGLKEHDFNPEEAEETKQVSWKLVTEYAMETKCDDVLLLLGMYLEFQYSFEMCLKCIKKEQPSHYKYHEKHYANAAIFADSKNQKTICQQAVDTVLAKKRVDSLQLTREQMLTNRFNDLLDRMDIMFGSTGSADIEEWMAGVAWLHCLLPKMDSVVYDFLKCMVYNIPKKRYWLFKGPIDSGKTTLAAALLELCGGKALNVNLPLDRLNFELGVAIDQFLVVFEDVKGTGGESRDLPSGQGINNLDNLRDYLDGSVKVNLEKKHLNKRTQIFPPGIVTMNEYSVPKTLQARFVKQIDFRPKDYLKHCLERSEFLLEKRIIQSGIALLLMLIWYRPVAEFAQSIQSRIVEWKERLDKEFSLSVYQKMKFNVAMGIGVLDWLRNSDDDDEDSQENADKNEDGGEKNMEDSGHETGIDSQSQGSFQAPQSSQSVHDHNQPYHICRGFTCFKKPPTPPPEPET
Format: functional, Betapolyomavirus macacae
The source made the active and inactive calls.
MEASUREMENT NAME: IC50

{"MOLECULE": "O=c1c2ccccc2sn1-c1cc(S(=O)(=O)N2CCOCC2)ccc1N1CCCC1", "STUDY TARGET": "Large T antigen (Simian virus 40, UniProt P03070)", "RESULT": "11.7 µM (active)"}
{"MOLECULE": "CCS(=O)(=O)c1ncc(Cl)c(C(=O)Nc2ccc(S(=O)(=O)N3CCCC(C)C3)cc2)n1 (stereo unspecified)", "STUDY TARGET": "Large T antigen (Simian virus 40, UniProt P03070)", "RESULT": "62.8 µM (active)"}
{"MOLECULE": "COc1ccc(N=Nc2c(N)n[nH]c2N)cc1", "STUDY TARGET": "Large T antigen (Simian virus 40, UniProt P03070)", "RESULT": "12 µM (active)"}
{"MOLECULE": "CC(=O)Nc1ccccc1O", "STUDY TARGET": "Large T antigen (Simian virus 40, UniProt P03070)", "RESULT": "6.2 µM (active)"}
{"MOLECULE": "N/C(=N\\[N+](=O)[O-])N/N=C/c1ccc(O)cc1", "STUDY TARGET": "Large T antigen (Simian virus 40, UniProt P03070)", "RESULT": "> 100 µM (active)"}
{"MOLECULE": "COc1ccc(NC2CCCN(C(=O)c3c(C)noc3C)C2)cc1 (stereo unspecified)", "STUDY TARGET": "Large T antigen (Simian virus 40, UniProt P03070)", "RESULT": "24 µM (active)"}
{"MOLECULE": "CCc1c(C)nc(N)nc1N1N=C1SC(C(C)=O)C(C)=O", "STUDY TARGET": "Large T antigen (Simian virus 40, UniProt P03070)", "RESULT": "95.9 µM (active)"}
{"MOLECULE": "Cc1ccc(Nc2nc(-c3ccc(O)c(O)c3)cs2)nc1", "STUDY TARGET": "Large T antigen (Simian virus 40, UniProt P03070)", "RESULT": "12.3 µM (active)"}
{"MOLECULE": "O=C1NN(c2cccc(Br)c2)C(=O)/C1=C\\c1ccc(O)cc1", "STUDY TARGET": "Large T antigen (Simian virus 40, UniProt P03070)", "RESULT": "17.2 µM (active)"}
{"MOLECULE": "CC/C(=N\\NC(=O)CCC(=O)NCc1ccccc1)c1ccc(O)cc1", "STUDY TARGET": "Large T antigen (Simian virus 40, UniProt P03070)", "RESULT": "34.6 µM (active)"}
{"MOLECULE": "CCn1c(SCC(=O)c2ccc(O)c(O)c2)nnc1-c1ccccc1OC", "STUDY TARGET": "Large T antigen (Simian virus 40, UniProt P03070)", "RESULT": "7.83 µM (active)"}

* * *

STUDY TARGET: Sentrin-specific protease 7 (Homo sapiens);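 note: Luminescence-based dose-response confirmation of ultra-high-throughput screening hits, measuring inhibition of SENP7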
Sequence (Q9BQF6 whole entry): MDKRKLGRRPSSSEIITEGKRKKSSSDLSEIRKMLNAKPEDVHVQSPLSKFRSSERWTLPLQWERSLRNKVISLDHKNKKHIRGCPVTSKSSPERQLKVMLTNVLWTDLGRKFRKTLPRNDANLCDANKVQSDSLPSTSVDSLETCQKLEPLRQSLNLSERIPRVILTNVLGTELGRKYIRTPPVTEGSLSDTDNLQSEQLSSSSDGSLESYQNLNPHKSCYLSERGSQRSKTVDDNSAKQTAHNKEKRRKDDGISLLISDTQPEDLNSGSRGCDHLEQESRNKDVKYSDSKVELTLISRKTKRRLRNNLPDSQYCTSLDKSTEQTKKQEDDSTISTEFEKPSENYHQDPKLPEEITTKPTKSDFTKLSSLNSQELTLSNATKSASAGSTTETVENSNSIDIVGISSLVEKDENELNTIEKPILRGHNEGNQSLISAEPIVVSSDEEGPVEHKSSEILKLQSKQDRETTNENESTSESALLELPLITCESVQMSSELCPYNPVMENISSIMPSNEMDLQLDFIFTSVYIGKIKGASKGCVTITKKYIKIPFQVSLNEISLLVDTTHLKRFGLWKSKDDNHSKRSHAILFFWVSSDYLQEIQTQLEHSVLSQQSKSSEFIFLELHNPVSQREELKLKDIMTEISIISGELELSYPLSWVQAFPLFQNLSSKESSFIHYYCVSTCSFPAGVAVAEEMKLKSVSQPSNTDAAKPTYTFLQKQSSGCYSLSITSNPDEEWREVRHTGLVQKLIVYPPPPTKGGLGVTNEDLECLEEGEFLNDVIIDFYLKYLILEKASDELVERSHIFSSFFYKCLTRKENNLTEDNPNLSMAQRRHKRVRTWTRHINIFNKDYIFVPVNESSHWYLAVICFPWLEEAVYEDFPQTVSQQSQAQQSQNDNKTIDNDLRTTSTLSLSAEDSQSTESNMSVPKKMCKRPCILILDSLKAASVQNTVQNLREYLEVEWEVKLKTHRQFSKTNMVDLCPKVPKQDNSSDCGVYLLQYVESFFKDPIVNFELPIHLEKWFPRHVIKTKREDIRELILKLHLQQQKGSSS
Assay type: functional
Activity calls are given as the source filed them.

{"MOLECULE": "C/C(=N\\Cc1ccco1)c1c(C)nn(-c2nc3ccccc3s2)c1O", "IC50": "3.48 µM (active)"}
{"MOLECULE": "COc1ccc(NC(=O)n2ncc3cc(Cl)ccc32)cc1OC", "IC50": "6.04 µM (active)"}
{"MOLECULE": "Cc1cccc(C(=O)Nc2cccc(C(=O)N/N=C/c3ccc4c(c3)OCO4)c2)c1", "IC50": "14.2 µM (active)"}
{"MOLECULE": "Cc1cccc(N=Nc2cnc(N)s2)c1", "IC50": "9.64 µM (active)"}
{"MOLECULE": "CN(C)C(=O)COC(=O)c1ccccc1Nc1ccc(SC(F)F)cc1", "IC50": "4.9 µM (active)"}
{"MOLECULE": "O=c1c2ccccc2nnn1COc1cccc(Cl)c1", "IC50": "6.41 µM (active)"}
{"MOLECULE": "COc1cccc(/C=C2\\CCC(C3CCCC3)C2=O)c1 (stereo not drawn)", "IC50": "11.8 µM (active)"}
{"MOLECULE": "COc1ccc(OC(=O)c2cc3ccccc3o2)cc1", "IC50": "5.34 µM (active)"}
